- TARGET OR SYSTEM: T1, GST-TAX33 PDZ domain fusion protein (tax interaction protein 33 AA73-162; PDZ domain 1 of 1) (UniProt P08515 1-218 = GST)
- T1 construct: also called TX33
- T1 sequence (P08515 1-218, tags or fused parts left off): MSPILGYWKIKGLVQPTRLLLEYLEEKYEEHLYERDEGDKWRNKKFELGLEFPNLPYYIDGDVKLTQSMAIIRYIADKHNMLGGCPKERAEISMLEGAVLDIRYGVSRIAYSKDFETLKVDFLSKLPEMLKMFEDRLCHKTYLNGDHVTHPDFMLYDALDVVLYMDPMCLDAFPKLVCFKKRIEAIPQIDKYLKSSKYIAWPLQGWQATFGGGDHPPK
- ASSAY DETAILS: A/G assays
Ends that are not written are not given here. * marks the point of attachment. Biotin = O=C1N[C@H]2[C@H](CS[C@H]2CCCCC(=O)*)N1
MEASUREMENT NAME: binding result

Examples with their reported binding result follow.
                                     binder  test_value
0  Biotin-DLGNMEENKKLEENNHKTEA [CD166 (CD6L) C-terminal PL peptide AA20L, biotinylated]  no binding
1  Biotin-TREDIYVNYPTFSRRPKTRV [DNAM-1 C-terminal PL peptide AA22L, biotinylated]  no binding
2  Biotin-KKGTYLTDETHREVKFTSL [CD46 (form 1) C-terminal PL peptide AA10L, biotinylated]  no binding
3  Biotin-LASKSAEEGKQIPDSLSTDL [DOCK2 C-terminal PL peptide AA40L, biotinylated]  no binding

binding result reading for Biotin-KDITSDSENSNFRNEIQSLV [CD95 (Apo-1/Fas) C-terminal PL peptide AA13L, biotinylated] : no binding

binding result reading for Biotin-SPQPDSTDNDDYDDISAA [CD6 C-terminal PL peptide AA6L, biotinylated] : no binding

binding result reading for Biotin-DTPSSSYTQSTMDHDLHDAL [CC CKR-4 C-terminal PL peptide AA44L, biotinylated] : no binding
